Hello, the source for this data is PubChem BioAssay (Tox21), in case you need it.

- assayedTarget: Nuclear receptor subfamily 1 group I member 2 (Homo sapiens) (UniProt O75469)
- measurementNotes: Human pregnane X receptor (PXR) activation by small molecules, qHTS assay (AID 1346985); also: nearly all actives have a fitted effect of over 40% in size
- appliedConditions: DPX-2 HepG2 CYP3A4-luciferase, 24 h; series mostly up to 38.3 µM
Records with an inconclusive call do not appear. Active and inactive are the calls of the source. Calls follow the shape of the dose curve; as a rule, active = well fitted activation curve with a large enough effect in the repeat runs; inconclusive = weak or mixed curves; inactive = flat fitted curve, though single readings scatter.
Respond only with the outcome that fits, drawn from t (active), f (inactive)

Short answer needed: outcome of this test for c1ccc(CNCCNCc2ccccc2)cc1 ?
f

Short answer needed: outcome of this test for O=C1OC(CN2CCOCC2)CN1/N=C/c1ccc([N+](=O)[O-])o1 (configuration not stated) ?
f

Short answer needed: outcome of this test for OCCN1CCN(CCCN2c3ccccc3C=Cc3ccccc32)CC1 ?
t

Short answer needed: outcome of this test for O=C1[C@H]2CCCC[C@H]2C(=O)N1CCCCN1CCN(c2nsc3ccccc23)CC1 ?
t

Short answer needed: outcome of this test for NCC(=O)CCC(=O)O ?
f

Short answer needed: outcome of this test for CN1CCN(C(c2ccccc2)c2ccccc2)CC1 ?
f

Short answer needed: outcome of this test for CC(=O)[O][Al][O]C(C)=O ?
f

###

- assayedTarget: Nuclear receptor subfamily 1 group I member 3 (Homo sapiens) (UniProt Q14994)
- Sequence (Q14994 whole entry, looked up): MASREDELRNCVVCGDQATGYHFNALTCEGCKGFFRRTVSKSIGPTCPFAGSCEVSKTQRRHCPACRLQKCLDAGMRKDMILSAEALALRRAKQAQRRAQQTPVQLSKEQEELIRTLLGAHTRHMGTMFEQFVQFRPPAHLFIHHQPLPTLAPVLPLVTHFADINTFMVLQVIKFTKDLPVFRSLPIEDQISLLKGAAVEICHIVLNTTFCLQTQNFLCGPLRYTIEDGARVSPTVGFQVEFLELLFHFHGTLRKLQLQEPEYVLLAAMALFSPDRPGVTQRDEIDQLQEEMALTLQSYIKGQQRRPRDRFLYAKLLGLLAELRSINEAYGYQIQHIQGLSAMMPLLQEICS
- measurementNotes: qHTS assay to identify small molecule agonists of the constitutive androstane receptor (CAR) signaling pathway (AID 1224839); also: nearly all actives have a fitted effect of over 15% in size; also: potency is read from the fitted curve at half-maximal effect;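 as to activation: HepG2 cells stably carrying human CAR and a CYP2B6 luciferase reporter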
- appliedConditions: HepG2 hCAR CYP2B6-luciferase, agonist mode, 24 h; series mostly up to 42.5 µM
Results filed as inconclusive are left out. The source made the active and inactive calls. Calls come from the whole dose curve; as a rule, active = well fitted activation curve with a large enough effect in the repeat runs; inconclusive = weak or mixed curves; inactive = no such curve, though single readings can be large or run the other way.
measurementLabel: Potency

Use these answered entries as a reference point.
1. CCn1cc(C(=O)O)c(=O)c2cnc(N3CCNCC3)nc21 = inactive
2. CN(C)c1ccc(/C=C/c2ccc([N+](=O)[O-])cc2)cc1 = 0.872 µM (active)
3. Clc1ccc2c(c1)CCc1cccnc1C2=C1CCNCC1 = inactive
4. CO[C@@H]1[C@H](OC(=O)/C=C/C=C/C=C/C=C/C(=O)O)CC[C@]2(CO2)[C@H]1[C@@]1(C)O[C@@H]1CC=C(C)C = inactive
5. COc1ccnc(CS(=O)c2nc3ccc(OC(F)F)cc3[nH]2)c1OC (centres undefined) = inactive
6. COC(C)(C)CCO = inactive
7. O=C(OCCCCCCOC(=O)c1ccccc1)c1ccccc1 = inactive
8. CC(C)(CO)[N+](=O)[O-] = inactive
9. CCO[Si](CCCCl)(OCC)OCC = inactive
10. OC(CN1CCC(Cc2ccc(F)cc2)CC1)c1ccc(Cl)cc1 (centres undefined) = inactive

Query (compound): COc1cc(Cl)ccc1Oc1ccc(Cl)cc1Cl ; field requested: Potency
29.8 µM (active)

Query (compound): COS(=O)(=O)C(F)(F)F ; field requested: Potency
inactive

Query (compound): O=C(Nc1ccccc1)c1ccccc1O ; field requested: Potency
27.3 µM (active)

Query (compound): O[C@@H](COc1cccc2ncccc12)CN1CCN(C2c3ccccc3[C@@H]3[C@H](c4ccccc42)C3(F)F)CC1 (some centres undefined) ; field requested: Potency
inactive

Query (compound): CCCNCC(O)COc1ccccc1C(=O)CCc1ccccc1 (centres undefined) ; field requested: Potency
inactive

Query (compound): NCCCN1CCOCC1 ; field requested: Potency
inactive

Query (compound): O=C1C(O)=C(O)C(=O)C(O)=C1O ; field requested: Potency
inactive

Query (compound): C=CCOC(=O)CCC1CCCCC1 ; field requested: Potency
inactive

Query (compound): CCCCCCCN ; field requested: Potency
inactive

###

- measurementNotes: qHTS assay to identify small molecule agonists of the estrogen receptor alpha (ER-alpha) signaling pathway in the presence of an antagonist - cell viability counter screen (AID 1259386);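 also: cells exposed to compounds for 22 h at 37 °C before the viability read; nearly all actives have a fitted effect of over 30% in size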
- appliedConditions: VM7Luc4E2 viability, CellTiter-Fluor fluorescence, 22 h; series mostly up to 92.4 µM
Inconclusive results are not listed. Activity calls are given as the source filed them. The call rests on the fitted dose curve; in most records, active means well fitted cell-killing curve with a large enough effect in the repeat runs; inconclusive means weak or mixed curves, or effect the other way; inactive means no such curve, though single readings can be large or run the other way.
Respond only with the outcome that fits, drawn from 1.0 = active, 0.0 = inactive

Short answer needed: outcome of this test for O=C(NCCO[N+](=O)[O-])c1cccnc1 ?
0.0

Short answer needed: outcome of this test for O=C(O)c1ccco1 ?
0.0

Short answer needed: outcome of this test for Cc1oc(-c2ccccc2)nc1CCOc1cccc2c1ccn2CCC(=O)O ?
1.0

Short answer needed: outcome of this test for COCC(C)OC(C)=O (stereo not drawn) ?
0.0

Short answer needed: outcome of this test for OCCNCc1ccccc1 ?
0.0

Short answer needed: outcome of this test for CCN(CC)CCNC(=O)c1cc(Br)c(N)cc1OC ?
0.0

Short answer needed: outcome of this test for Cc1cc(C(=O)O)ccc1[N+](=O)[O-] ?
0.0

Short answer needed: outcome of this test for O[C@@H](COc1cccc2ncccc12)CN1CCN(C2c3ccccc3[C@@H]3[C@H](c4ccccc42)C3(F)F)CC1 (stereo partly drawn) ?
0.0

Short answer needed: outcome of this test for CCn1cc(C(=O)O)c(=O)c2cnc(N3CCNCC3)nc21 ?
0.0

Short answer needed: outcome of this test for COc1cccc(N(C)C(=S)Oc2ccc3c(c2)CCCC3)n1 ?
0.0

Short answer needed: outcome of this test for COC(=O)c1ccc(I)cc1S(=O)(=O)NC(=O)Nc1nc(C)nc(OC)n1 ?
0.0

Short answer needed: outcome of this test for CCCCCCCC#N ?
0.0

Short answer needed: outcome of this test for COC(C)(C)CCO ?
0.0

###

- measurementNotes: qHTS assay to identify small molecule agonists of the AP-1 signaling pathway (AID 1159526)
- appliedConditions: ME-180 (cervical carcinoma) AP-1-bla reporter, beta-lactamase FRET ratio, 5 h; series mostly up to 76.8 µM
Records with an inconclusive call do not appear. Calls of active or inactive are those of the source. Calls follow the shape of the full dose curve.
measurementLabel: activation

1. CCO[C@H](Cc1ccc(OCCc2ccc(OS(C)(=O)=O)cc2)cc1)C(=O)O = inactive
2. CO[C@@H]1[C@H](OC(=O)/C=C/C=C/C=C/C=C/C(=O)O)CC[C@]2(CO2)[C@H]1[C@@]1(C)O[C@@H]1CC=C(C)C = inactive
3. O=C1C(O)=C(O)C(=O)C(O)=C1O = inactive
4. O=C(Nc1ccccc1)c1ccccc1O = inactive

// next entry
Query (compound): CC[N+](C)(CC)CCOC(=O)C(O)(c1ccccc1)C1CCCCC1 (stereo not given) ; field requested: activation
inactive

###

- measurementNotes: qHTS assay to identify small molecule agonists of the sonic hedgehog signaling (Shh) pathway - cell viability counter screen (AID 1259366); also: nearly all actives have a fitted effect of over 50% in size; also: potency is read from the fitted curve at half-maximal effect
- appliedConditions: NIH/3T3 Gli1-Luc viability, CellTiter-Fluor, 24 h; series mostly up to 92.4 µM
Results filed as inconclusive are left out. The source made the active and inactive calls. The call rests on the fitted dose curve; in most records, active means well fitted cell-killing curve with a large enough effect in the repeat runs; inconclusive means weak or mixed curves, or effect the other way; inactive means flat fitted curve, though single readings scatter.
measurementLabel: Potency

Use these answered entries as a reference point.
1. CCN(CC)CCNc1ccc(CNC=O)c2sc3ccc(OC)cc3c(=O)c12 = inactive
2. COc1ccnc(CS(=O)c2nc3ccc(OC(F)F)cc3[nH]2)c1OC (stereo unspecified) = inactive
3. O=CC1CC=CCC1 (stereo unspecified) = inactive
4. O=C(c1ccc(F)cc1)C1CCN(CCn2c(=S)[nH]c3ccccc3c2=O)CC1 = inactive
5. OC[C@H]1O[C@@H](OCCc2ccc(O)cc2)[C@H](O)[C@@H](O)[C@@H]1O = inactive

// next entry
Query (compound): CCc1cc(C2=C(C(=O)O)N(c3ccccc3C(F)(F)F)S(=O)(=O)c3ccccc32)cc2c1OCO2 ; field requested: Potency
12.1 µM (active)

###

- measurementNotes: A CellTox Green Cytotoxicity Assay to monitor cytotoxicity in HepG2 cells - 24 hour (AID 1224878); also: nearly all actives have a fitted effect of over 45% in size
- appliedConditions: CellTox Green fluorescence; series mostly up to 76.8 µM
Records with an inconclusive call do not appear. Activity calls are given as the source filed them. The call rests on the fitted dose curve; in most records, active means well fitted activation curve with a large enough effect in the repeat runs; inconclusive means weak or mixed curves; inactive means flat fitted curve, though single readings scatter.
Respond only with the outcome that fits, drawn from YES (active), NO (inactive)

Short answer needed: outcome of this test for OCc1cc(C(O)CNCCCCCCOCCCCc2ccccc2)ccc1O (stereo unspecified) ?
YES

Short answer needed: outcome of this test for Cc1ccccc1S(=O)(=O)O ?
NO

Short answer needed: outcome of this test for NCc1ccccc1Sc1ccccc1CO ?
NO

Short answer needed: outcome of this test for CC(=O)OC[C@H]1O[C@@H](n2ncc(=O)[nH]c2=O)[C@H](OC(C)=O)[C@@H]1OC(C)=O ?
NO

Short answer needed: outcome of this test for NS(=O)(=O)c1ccc(N2CCCCS2(=O)=O)cc1 ?
NO

Short answer needed: outcome of this test for COCC(C)OC(C)=O (stereo unspecified) ?
NO

Short answer needed: outcome of this test for COCCCN1CCC(NC(=O)c2cc(Cl)c(N)c3c2OCC3)CC1 ?
NO

Short answer needed: outcome of this test for CCN(CC)c1ccc(C(=C2C=CC(=[N+](CC)CC)C=C2)c2cc(S(=O)(=O)O)ccc2S(=O)(=O)[O-])cc1 ?
NO

Short answer needed: outcome of this test for CC1OC(=O)C(C)OC1=O (stereo unspecified) ?
NO

Short answer needed: outcome of this test for CCCCCCCC/C=C\CCCCCCCC(=O)OCC ?
NO

Short answer needed: outcome of this test for CC(C)Cc1ccc(C(C)C(=O)OCc2ccccn2)cc1 (stereo unspecified) ?
NO
